target: TLR4 (Mus musculus, UniProt Q9QUK6); construct: endogenous in cells; host or cells: RAW264.7 (murine macrophage cell line); assay: Inhibitory effect with respect to NO production (LPS/interferon γ stimulated RAW264.7 cells); format: cell-based, murine; settings: test compound 100 nM, LPS 1.25 ng/mL + mouse interferon γ 0.2 ng/mL, nitrite ion in culture supernatant
Sequence (Q9QUK6 26-835): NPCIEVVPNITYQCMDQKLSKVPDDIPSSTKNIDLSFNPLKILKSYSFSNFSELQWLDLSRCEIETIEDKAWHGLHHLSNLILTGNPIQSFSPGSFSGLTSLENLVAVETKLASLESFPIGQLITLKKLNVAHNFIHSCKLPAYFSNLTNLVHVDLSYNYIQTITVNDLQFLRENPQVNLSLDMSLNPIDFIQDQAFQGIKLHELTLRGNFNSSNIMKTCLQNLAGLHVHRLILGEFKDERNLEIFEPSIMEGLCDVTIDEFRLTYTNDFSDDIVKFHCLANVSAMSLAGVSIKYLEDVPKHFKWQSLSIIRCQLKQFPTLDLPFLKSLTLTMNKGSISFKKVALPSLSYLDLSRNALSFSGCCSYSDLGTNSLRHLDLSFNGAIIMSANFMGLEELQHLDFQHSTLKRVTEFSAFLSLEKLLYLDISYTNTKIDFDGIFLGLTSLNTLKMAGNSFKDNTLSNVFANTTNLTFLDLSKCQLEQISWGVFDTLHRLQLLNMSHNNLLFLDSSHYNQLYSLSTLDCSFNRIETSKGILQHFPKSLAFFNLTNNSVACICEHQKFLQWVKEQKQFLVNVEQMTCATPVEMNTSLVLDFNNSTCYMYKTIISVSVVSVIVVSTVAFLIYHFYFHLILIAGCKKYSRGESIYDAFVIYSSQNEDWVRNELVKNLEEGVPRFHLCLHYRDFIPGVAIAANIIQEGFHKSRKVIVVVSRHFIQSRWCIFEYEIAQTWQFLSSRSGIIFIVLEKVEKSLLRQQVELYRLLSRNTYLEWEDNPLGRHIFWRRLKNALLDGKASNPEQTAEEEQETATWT
Sequence (Q9JHF9 19-160 partner): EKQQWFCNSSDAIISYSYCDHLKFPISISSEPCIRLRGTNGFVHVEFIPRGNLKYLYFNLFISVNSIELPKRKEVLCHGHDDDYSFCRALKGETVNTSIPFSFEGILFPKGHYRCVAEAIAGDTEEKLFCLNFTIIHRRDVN
Each entry below carries its recorded NO production inhibitory effect at 100 nM (% inhibition).
metric: NO production inhibitory effect at 100 nM (% inhibition)

compound: CCOC(=O)C1=CC2(CCC1S(=O)(=O)Cc1ccc(F)cc1Cl)OCCO2 (stereo not shown)
endpoint.value: 110
--
compound: CCOC(=O)C1=CC2(CCC1S(=O)(=O)Cc1ccc(F)cc1Cl)O[C@H](CO)[C@@H](CO)O2 (stereo partly shown)
endpoint.value: 106
--
compound: CCOC(=O)C1=CC2(CCC1S(=O)(=O)Cc1ccc(F)cc1Cl)O[C@@H](CO)[C@H](CO)O2 (stereo partly shown)
endpoint.value: 107
--
compound: CCOC(=O)C1=CC2(CCC1S(=O)(=O)Cc1ccc(F)cc1Br)O[C@H](CO)[C@@H](CO)O2 (stereo partly shown)
endpoint.value: 100
--
compound: CCOC(=O)C1=CC2(CCC1S(=O)(=O)Cc1cccc(C)c1)O[C@H](CO)[C@@H](CO)O2 (stereo partly shown)
endpoint.value: 100
--
compound: CCOC(=O)C1=CC2(CC[C@H]1S(=O)(=O)Cc1ccccc1Cl)O[C@H](CO)[C@@H](CO)O2
endpoint.value: 103
--
compound: CCOC(=O)C1=CC2(CC[C@H]1S(=O)(=O)Cc1ccccc1Cl)O[C@@H](CO)[C@H](CO)O2
endpoint.value: 114
